Each entry below carries its recorded pIC50.
Tested on: CEM-SS
test.summary: Effective concentration required to achieve 50% inhibition of HIV-1 multiplication in human T-4 lymphoblastoid cell line CEM-SS/LAI
Assay type: functional, cell-based
pIC50: −log10 of the molar value.

structure=Cc1c(Sc2ccccc2)n(COCCN(C(=O)c2ccccc2)C(=O)c2ccccc2)c(=O)[nH]c1=O observed_result="< 6.00"
structure=Cc1c(Sc2ccccc2)n(COCCSc2ccccc2)c(=O)[nH]c1=O observed_result="< 6.00"
structure=Cc1c(Sc2ccccc2)n(C/C=C/C2CCCCC2)c(=O)[nH]c1=O observed_result="< 6.00"
structure=Cc1c(Sc2ccccc2)n(C/C=C/c2cc3ccccc3o2)c(=O)[nH]c1=O observed_result="< 6.00"
structure=Cc1c(Sc2ccccc2)n(C/C=C/c2ccc([N+](=O)[O-])s2)c(=O)[nH]c1=O observed_result="< 6.00"

Okay, now this molecule:
Determine from records and report pIC50 for "Cc1c(Sc2ccccc2)n(COCCN2CCOCC2)c(=O)[nH]c1=O" < 4.00
